# Test system: K24384-001-R-PDC complex spheroid growth
# assay_comment: Anticancer human tumor K24384-001-R-PDC patient-derived pancreatic adenocarcinoma cell line growth inhibition [AhR]
# conditions_used: second compound 3.16 µM; first compound 0.316 µM; stronger effect = lower value
Note to self: use 1 (yes) only for viability, T/C readings below 80%; a reading exactly at 80% still gets 0 (no).

Example entries and their recorded answers appear below.
# compound, group
rows = [
    ("Nc1ccn(C2OC(CO)C(O)C2(F)F)c(=O)n1 (stereo unspecified) + Cc1cncc(-c2nc(NCCc3c[nH]c4ccccc34)c3ncn(C(C)C)c3n2)c1", "0 (no)"),
    ("CC1COCCN1c1cc(-c2ccnn2C)c2ccnc(-c3ccn[nH]3)c2n1 (stereo unspecified) + CC(CO)NC(=O)c1cc(-c2ccc(Cl)cc2)nn(-c2cnn(C)c2)c1=O", "1 (yes)"),
    ("CC(C)c1c(-c2ccccc2)nc2c(C#N)c[nH]n2c1=O + Cc1ccccc1N=Nc1ccc(NC(=O)c2ccnn2C)c(C)c1", "0 (no)"),
]

Exercise: Just wondering, is viability, T/C of COc1cc(Nc2ncc3c(n2)-c2ccc(Cl)cc2C(c2c(F)cccc2OC)=NC3)ccc1C(=O)O + Cc1cncc(-c2nc(NCCc3c[nH]c4ccccc34)c3ncn(C(C)C)c3n2)c1 below 80%?
Key: 1 (yes)

----------
# Test system: K24384-001-R-PDC complex spheroid growth
# assay_comment: Anticancer human tumor K24384-001-R-PDC cell line growth inhibition [AhR];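 further: percent of DMSO vehicle-treated spheroid viability set as 100%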
# conditions_used: second compound 3.16 µM; first compound 0.316 µM; stronger effect = lower value
recorded_endpoint: viability, T/C (%)
A number alone suffices; assume %.

Examples from the recorded data:
# molecule, viability, T/C (%)
records = [
    ("COc1ccc([C@@H](O)c2cc(-c3ncnc4cc(N5CCOCC5)ccc34)c(F)cc2Cl)nn1 + Cc1ccccc1N=Nc1ccc(NC(=O)c2ccnn2C)c(C)c1", 81),
    ("CC1COCCN1c1cc(C2(S(C)(=N)=O)CC2)nc(-c2ccnc3[nH]ccc23)n1 (configuration not stated) + Cc1ccccc1N=Nc1ccc(NC(=O)c2ccnn2C)c(C)c1", 95.8),
    ("O=C(c1cc(Cc2n[nH]c(=O)c3ccccc23)ccc1F)N1CCN(C(=O)C2CC2)CC1 + Cc1cncc(-c2nc(NCCc3c[nH]c4ccccc34)c3ncn(C(C)C)c3n2)c1", 135),
    ("COc1cccc2c1C(=O)c1c(O)c3c(c(O)c1C2=O)CC(O)(C(=O)CO)CC3OC1CC(N)C(O)C(C)O1 (configuration not stated) + Cc1cncc(-c2nc(NCCc3c[nH]c4ccccc34)c3ncn(C(C)C)c3n2)c1", 10.2),
    ("CC(C)c1c(-c2ccccc2)nc2c(C#N)c[nH]n2c1=O + Cc1cncc(-c2nc(NCCc3c[nH]c4ccccc34)c3ncn(C(C)C)c3n2)c1", 82.6),
]

Now for another entry.
Exercise: Can you look up viability, T/C on K24384-001-R-PDC complex spheroid growth for Nc1ncn(C2CC(O)C(CO)O2)c(=O)n1 (configuration not stated) + Cc1ccccc1N=Nc1ccc(NC(=O)c2ccnn2C)c(C)c1 ?
Key: 64.9

----------
# Tested on: K24384-001-R-PDC complex spheroid growth
# assay_comment: Anticancer human tumor K24384-001-R-PDC cell line growth inhibition [AhR];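 further: percent of DMSO vehicle-treated spheroid viability set as 100%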
# conditions_used: second compound 1 µM; first compound 0.00949 µM; stronger effect = lower value
recorded_endpoint: viability, T/C (%)
A number alone suffices; assume %.

Examples from the recorded data:
# compound, target_or_test_system, recorded_endpoint, output_unit, numeric_result
records = [
    ("CCN(c1cc(-c2ccc(CN3CCOCC3)cc2)cc(C(=O)NCc2c(C)cc(C)[nH]c2=O)c1C)C1CCOCC1 + Cc1ccccc1N=Nc1ccc(NC(=O)c2ccnn2C)c(C)c1", "K24384-001-R-PDC complex spheroid growth", "viability, T/C", "%", 119),
    ("CCN(c1cc(-c2ccc(CN3CCOCC3)cc2)cc(C(=O)NCc2c(C)cc(C)[nH]c2=O)c1C)C1CCOCC1 + Cc1cncc(-c2nc(NCCc3c[nH]c4ccccc34)c3ncn(C(C)C)c3n2)c1", "K24384-001-R-PDC complex spheroid growth", "viability, T/C", "%", 126),
]

Exercise: Would you mind telling me what viability, T/C value was observed for O=C(C=Cn1cnc(-c2cc(C(F)(F)F)cc(C(F)(F)F)c2)n1)NNc1cnccn1 + CC(CO)NC(=O)c1cc(-c2ccc(Cl)cc2)nn(-c2cnn(C)c2)c1=O ?
Key: 86.1

Exercise: Would you mind telling me what viability, T/C value was observed for O=C(C=Cn1cnc(-c2cc(C(F)(F)F)cc(C(F)(F)F)c2)n1)NNc1cnccn1 + Cc1ccccc1N=Nc1ccc(NC(=O)c2ccnn2C)c(C)c1 ?
Key: 97.4

Exercise: Would you mind telling me what viability, T/C value was observed for Nc1ncn(C2CC(O)C(CO)S2)c(=O)n1 (centres undefined) + Cc1ccccc1N=Nc1ccc(NC(=O)c2ccnn2C)c(C)c1 ?
Key: 68.7
